Taken from patent US20170313756A1.

Reported Ki values for the following binders.
biological target: melanocortin 3 receptor (MC3R) (UniProt P41968); assay: 125I-NDP-MSH competition, HEK293 membranes
Sequence (P41968 whole entry): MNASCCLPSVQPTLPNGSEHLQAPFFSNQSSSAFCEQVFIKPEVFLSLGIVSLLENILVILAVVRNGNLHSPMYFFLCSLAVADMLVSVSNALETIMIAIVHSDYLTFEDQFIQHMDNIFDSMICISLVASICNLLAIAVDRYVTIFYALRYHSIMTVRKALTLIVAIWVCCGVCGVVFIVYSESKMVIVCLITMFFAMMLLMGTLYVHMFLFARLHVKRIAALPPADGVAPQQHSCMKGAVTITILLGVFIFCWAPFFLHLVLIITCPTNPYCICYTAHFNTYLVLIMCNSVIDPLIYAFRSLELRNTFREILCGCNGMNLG
[ ]: non-standard residue; d: D form. dCha = N[C@H](CC1CCCCC1)C(=O)O
Could you give me the number in µM? Just the number is fine.

# count of solved cases: 2
BINDER	UNIT SPEC	Ki
VPKGWRFHEXSYS (N-terminal acetyl (Ac); C-terminal amide; D-buthionine at 10; D-isomers at all residues except Gly 4) [peptide 878]	µM	40
Ac-[dV][dP][dK]G[dW][dR][dF][dH][dS][dI][dI][dS][dS]-NH2 (SMILES CC[C@@H](C)[C@@H](NC(=O)[C@@H](CO)NC(=O)[C@@H](Cc1c[nH]cn1)NC(=O)[C@@H](Cc1ccccc1)NC(=O)[C@@H](CCCNC(=N)N)NC(=O)[C@@H](Cc1c[nH]c2ccccc12)NC(=O)CNC(=O)[C@@H](CCCCN)NC(=O)[C@H]1CCCN1C(=O)[C@H](NC(C)=O)C(C)C)C(=O)N[C@@H](C(=O)N[C@H](CO)C(=O)N[C@H](CO)C(N)=O)[C@H](C)CC) [peptide 886]	µM	19

Prompt line: I am curious: what Ki value has been reported for Ac-[dV][dP][dK]G[dW][dR]F[dH][dS][dI][dI][dS][dS]-NH2 (SMILES CC[C@@H](C)[C@@H](NC(=O)[C@@H](CO)NC(=O)[C@@H](Cc1c[nH]cn1)NC(=O)[C@H](Cc1ccccc1)NC(=O)[C@@H](CCCNC(=N)N)NC(=O)[C@@H](Cc1c[nH]c2ccccc12)NC(=O)CNC(=O)[C@@H](CCCCN)NC(=O)[C@H]1CCCN1C(=O)[C@H](NC(C)=O)C(C)C)C(=O)N[C@@H](C(=O)N[C@H](CO)C(=O)N[C@H](CO)C(N)=O)[C@H](C)CC) [peptide 880] ?
Response line: 18

Prompt line: I am curious: what Ki value has been reported for VPKGWRXHEXSYS (N-terminal acetyl (Ac); C-terminal amide; D-Cha at 7; D-buthionine at 10; D-isomers at all residues except Gly 4) [peptide 890] ?
Response line: 15

Prompt line: I am curious: what Ki value has been reported for Ac-[dV][dP][dK]G[dW][dR][dCha][dH][dS][dI][dI][dS][dS]-NH2 (SMILES CC[C@@H](C)[C@@H](NC(=O)[C@@H](CO)NC(=O)[C@@H](Cc1c[nH]cn1)NC(=O)[C@@H](CC1CCCCC1)NC(=O)[C@@H](CCCNC(=N)N)NC(=O)[C@@H](Cc1c[nH]c2ccccc12)NC(=O)CNC(=O)[C@@H](CCCCN)NC(=O)[C@H]1CCCN1C(=O)[C@H](NC(C)=O)C(C)C)C(=O)N[C@@H](C(=O)N[C@H](CO)C(=O)N[C@H](CO)C(N)=O)[C@H](C)CC) [RI α-MSH analog 891] ?
Response line: 8
